- measured_on: DLG5_1, Q8TDM6
- Sequence (Q8TDM6 617-713): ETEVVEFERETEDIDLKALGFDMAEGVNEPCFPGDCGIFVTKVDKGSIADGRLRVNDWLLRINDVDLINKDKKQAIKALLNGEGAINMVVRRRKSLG
- assay_protocol: holdup assay
- Design: key: below the threshold = too weak to quantify, mostly under pKd 3.1 to 4
- condition_set: plain residues with an end cap or a label only (N-terminal biotin on a linker: ado-ado)
observable: pKd

[[record]]
binder = "EFKQTSSFLV [JAM1, Q9Y624]"
observable = "pKd"
meas_value = "below the threshold"

[[record]]
binder = "NSTHNLKDYV [CLDN20, P56880]"
observable = "pKd"
meas_value = "below the threshold"

[[record]]
binder = "QRYPGNQTTC [CCL24, O00175]"
observable = "pKd"
meas_value = "below the threshold"

[[record]]
binder = "KAEEKPPSKV [SCN4B, Q8IWT1]"
observable = "pKd"
meas_value = "below the threshold"


From: paper PMC9482650
